For reference, the following Ki results for Lysophosphatidic acid receptor 1 (Homo sapiens) were taken from various sources.
Lab note: cut-off is 30 nM. Strictly less in Ki is yes. Exactly 30 nM or more is no.

Does the reported Ki of the following molecule sit strictly below 30 nM? CC(C)c1cncc(Nc2c(-c3ccc(-c4ccc(C5(C(=O)O)CC5)cc4)cc3)cnn2C)n1
yes

// next record Cc1cc2nc3c(=O)[nH]c(=O)nc-3n(CCOC(=O)CCC(=O)O)c2cc1C
no

Also Cn1c(=O)c2c(nc(C(=N)SCC(=O)O)n2C)n(C)c1=O , if possible.
no

What do you get for CC(C)c1cncc(Nc2c(-c3ncc(-c4ccc(C5(C(=O)O)CC5)cc4)cn3)cnn2C)n1 ?
yes

// repeat for Cc1noc(C23CCC(c4ccc(CC(=O)O)cc4)(CC2)OC3)c1NC(=O)O[C@H](C)C1CC1 and report
no

Field entry: CC(C)c1cncc(Nc2c(-c3ccc(-c4ccc(C5(C(=O)O)CC5)cc4)cn3)cnn2C)n1
yes

Queued: Cn1ncc(-c2ccc(-c3ccc(C4(C(=O)O)CC4)cc3)cn2)c1Nc1cncc(C(F)(F)F)n1
yes
